experiment: IV pharmacokinetics in Sprague Dawley rats
Format: in vivo
experimental_parameters: Sprague-Dawley, rat, in vivo, iv, 2 mg/kg, normal saline, read-out: Cmax
measured_attribute: Cmax (ng/mL)

P = O=C1NCCCC[C@]12CCCN2 [AU-1, (S)-1,7-diazaspiro[4.6]undecan-6-one]
Q = CC(C)(C)OC(=O)N1CCCC12CCCNC2=O (single isomer, unassigned) [EV-1]
R = CC(C)CN1CCCC12CC=CCNC2=O (single isomer, unassigned) [GI-2]
Request: Can you order these entries from above by Cmax? Start with the largest number and work down. In your reply, arrange the labels in the requested order.
Response: Q, P, R
(Q: 2730 ng/mL, P: 1620 ng/mL, R: 976 ng/mL)

* * *

experiment: Microsomal stability (Rat)
Type: in vitro ADME
experimental_parameters: after 60 minutes
measured_attribute: Microsomal (Rat): percent of compound remaining (%)

INSERT INTO results (compound, recorded_number) VALUES
  ('O=C1NCCCCC12CCCNC2 (single isomer, unassigned) [CF, 2,8-diazaspiro[5.6]dodecan-7-one]', 88);

P = O=C1NCCCC[C@]12CCCN2 [AU-1, (S)-1,7-diazaspiro[4.6]undecan-6-one]
Q = O=C1N(Cc2ccccc2)CC=CCC12CCCN2 (single isomer, unassigned) [GS-1]
Request: Of P and Q , which carries the smaller reported Microsomal (Rat): percent of compound remaining figure? Please respond with the label that marks your chosen entry.
Response: Q
(Q: 0%, P: 91%)

A = CC(C)(C)OC(=O)N1CCCC12CCCNC2=O (single isomer, unassigned) [EV-2]
B = O=C1NCC=CCC12CCCN2Cc1ccc(F)cc1 (single isomer, unassigned) [GJ-2]
Request: // compare measured Microsomal (Rat): percent of compound remaining, left A , right B , return larger Your answer should be the label of the entry you select.
Response: A

* * *

assayed_target: NMDAR2C (Homo sapiens, UniProt Q14957)
Construct: expressed in transfected cells; host or cells: HEK cells (membrane extract)
Sequence (Q14957 20-1233, species assumed, other chains not shown): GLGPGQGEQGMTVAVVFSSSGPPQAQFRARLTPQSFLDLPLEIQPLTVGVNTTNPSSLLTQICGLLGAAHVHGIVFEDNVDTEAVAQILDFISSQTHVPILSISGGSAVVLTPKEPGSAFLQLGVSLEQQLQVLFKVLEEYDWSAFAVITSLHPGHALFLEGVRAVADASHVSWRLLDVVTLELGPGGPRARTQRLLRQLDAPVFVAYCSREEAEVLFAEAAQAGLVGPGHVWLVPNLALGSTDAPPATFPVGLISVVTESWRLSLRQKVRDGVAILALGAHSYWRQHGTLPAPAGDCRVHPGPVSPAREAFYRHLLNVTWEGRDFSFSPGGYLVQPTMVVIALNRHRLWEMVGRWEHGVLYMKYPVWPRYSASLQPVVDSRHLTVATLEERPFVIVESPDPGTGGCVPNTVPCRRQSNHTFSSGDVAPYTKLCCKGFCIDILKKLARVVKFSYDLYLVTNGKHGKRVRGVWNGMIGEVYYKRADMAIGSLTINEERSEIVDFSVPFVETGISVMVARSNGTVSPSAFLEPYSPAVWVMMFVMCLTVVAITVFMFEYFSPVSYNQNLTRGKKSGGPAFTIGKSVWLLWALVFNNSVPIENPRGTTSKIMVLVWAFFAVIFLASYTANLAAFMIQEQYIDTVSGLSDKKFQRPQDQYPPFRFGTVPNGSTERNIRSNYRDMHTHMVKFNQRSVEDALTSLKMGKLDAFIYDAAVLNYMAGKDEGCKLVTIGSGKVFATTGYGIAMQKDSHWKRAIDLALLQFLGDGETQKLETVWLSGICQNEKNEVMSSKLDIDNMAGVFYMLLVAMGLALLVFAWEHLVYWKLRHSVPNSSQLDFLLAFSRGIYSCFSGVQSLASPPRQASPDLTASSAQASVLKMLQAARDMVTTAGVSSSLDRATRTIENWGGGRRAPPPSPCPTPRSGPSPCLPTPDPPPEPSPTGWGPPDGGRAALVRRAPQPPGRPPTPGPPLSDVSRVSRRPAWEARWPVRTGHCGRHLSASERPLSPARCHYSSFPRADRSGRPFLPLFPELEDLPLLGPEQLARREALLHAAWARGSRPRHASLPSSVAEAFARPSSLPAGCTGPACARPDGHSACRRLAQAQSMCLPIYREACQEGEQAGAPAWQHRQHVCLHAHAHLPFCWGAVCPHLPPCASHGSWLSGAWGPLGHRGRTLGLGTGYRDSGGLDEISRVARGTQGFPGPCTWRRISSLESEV
experiment: NMDAR agonist assay, [3H]MK-801 binding, NMDAR2C expressing HEK cell membranes
Assay type: biochemical
experimental_parameters: 50 μM glutamate; relative to 1 mM glycine
measured_attribute: NMDAR2C A: % maximal [3H]MK-801 binding relative to 1 mM glycine

Solved entries:
INSERT INTO results (compound, result) VALUES
  ('CC(C)(C)OC(=O)N1CCCC12CCCNC2=O (single isomer, unassigned) [EV-2]', '+ (<100%=+)'),
  ('O=C1NCCCC12CCCN2 (stereo not drawn) [EU-2, 1,7-diazaspiro[4.5]decan-6-one]', '+ (<100%=+)'),
  ('O=C1NCC=CC[C@]12CCCN2 [GA, (R)-1,7-diazaspiro[4.6]undec-9-en-6-one]', '0%'),
  ('O=C1NCCCC[C@@]12CCCN2 [AU-2, (R)-1,7-diazaspiro[4.6]undecan-6-one]', '+ (<100%=+)');

Request: Give the value of NMDAR2C A: % maximal [3H]MK-801 binding relative to 1 mM glycine reported for the following: CC(C)(C)OC(=O)N1CCCC12CCCNC2=O (single isomer, unassigned) [EV-1]
Response: + (<100%=+)

* * *

experiment: Oral pharmacokinetics in Sprague Dawley rats (plasma, brain, CSF)
Format: in vivo
experimental_parameters: Sprague-Dawley, rat, plasma, po, 10 mg/kg, per os 10 mg/kg
measured_attribute: bioavailability (%)

INSERT INTO assay_data (compound, recorded_number) VALUES
  ('CC(C)C(=O)N1CCC2(CCCN2C(=O)C(C)C)C1=O (single isomer, unassigned)', 37),
  ('CN1CCCC12CC=CCNC2=O (single isomer, unassigned)', 87),
  ('O=C1NCCCCC12CCCNC2 (single isomer, unassigned) [CF, 2,8-diazaspiro[5.6]dodecan-7-one]', 33),
  ('O=C1NCCCC12CCCN2 (centres unmarked) [EU-2, 1,7-diazaspiro[4.5]decan-6-one]', 100),
  ('O=C1NCC=CCC12CC(F)(F)CN2 (single isomer, unassigned)', 53);

1 = CN1CC=CCC2(CCCN2Cc2ccccc2)C1=O (single isomer, unassigned)
2 = O=C1NCCCCC12CCCCN2 (single isomer, unassigned) [AZ, 1,8-diazaspiro[5.6]dodecan-7-one]
Request: Out of 1 and 2 , name the one with the higher bioavailability. Answer by quoting the chosen item's label.
Response: 2
